Values were extracted from PubChem BioAssay AID248.

Provide the recorded T/C for the entries that follow.
# Tested on: L1210 leukemia ip in BDF1 mice, survival T/C
# protocol_notes: NCI In Vivo Anticancer Drug Screen. Data for tumor model L1210 Leukemia (intraperitoneal) in B6D2F1 (BDF1) mice
# test_settings: endpoint: mean survival time; dose: 200.0 mg/kg/injection; schedule: Q01DX001 (ip); vehicle: Klucel (hydroxypropylcellulose) (HPC); higher = longer survival
Inconclusive results and toxic doses are left out.

Would you please look over these solved cases?
> print(dat)
                                   compound                               measured.on  measured.quantity  recorded.measurement
1  CNC(=O)NCC1OC(n2cnc3c(N)ncnc32)C(O)C1O (configuration not stated)  L1210 leukemia ip in BDF1 mice, survival T/C                T/C       98 % of control
2                       COc1ccc(NC(C)=O)cc1  L1210 leukemia ip in BDF1 mice, survival T/C                T/C      100 % of control
3                       CNC(=O)Oc1ccccc1CCl  L1210 leukemia ip in BDF1 mice, survival T/C                T/C       92 % of control
4  CN(C)c1ccc(C(=O)CCCN2CCC(O)(c3ccc(C(F)(F)F)cc3)CC2)cc1  L1210 leukemia ip in BDF1 mice, survival T/C                T/C      105 % of control
5           CCCCCCCCCCCCCCCOc1cc(C=O)ccc1OC  L1210 leukemia ip in BDF1 mice, survival T/C                T/C       87 % of control
6  COc1ccc2c(c1)CCC1C2CCC2C(O)CCCC21 (configuration not stated)  L1210 leukemia ip in BDF1 mice, survival T/C                T/C       87 % of control
7  CC1(C)N=C(N)N=C(N)N1c1cccc(CC(C(=O)Nc2ccc(S(=O)(=O)F)cc2)c2ccccc2)c1 (configuration not stated)  L1210 leukemia ip in BDF1 mice, survival T/C                T/C      101 % of control
8  Cc1ccc(S(=O)(=O)NC(Cc2ccccc2)C(=O)Nc2cccnc2)cc1 (configuration not stated)  L1210 leukemia ip in BDF1 mice, survival T/C                T/C      100 % of control

# batch: return T/C for each of the 3 compounds below
1. Cc1cc(C)c(N(CC(=O)O)S(=O)(=O)c2ccccc2)c(C)c1Cl
2. O=C(Cc1ccccc1)Nc1cccnc1
3. CC(=O)CC(C)(C)c1ccccc1

output:
["91 % of control", "103 % of control", "95 % of control"]

input: // T/C lookup, key: "COc1ccccc1-n1c(O)c(N=Nc2ccc(Br)cc2)c(=O)n(-c2ccccc2OC)c1=S"
output: 105 % of control

* * *

# System: L1210 leukemia ip in BDF1 mice, survival T/C
# protocol_notes: NCI In Vivo Anticancer Drug Screen. Data for tumor model L1210 Leukemia (intraperitoneal) in B6D2F1 (BDF1) mice
# test_settings: endpoint: mean survival time; dose: 100.0 mg/kg/injection; schedule: Q04DX003 (ip); vehicle: Klucel (hydroxypropylcellulose) (HPC); higher = longer survival
Toxic doses and inconclusive results are not listed.
Provide the recorded T/C for the entries that follow.

Would you please look over these solved cases?
> print(dat)
                                   molecule  recorded.measurement
1                      CNC(=O)OCC(Cl)(Cl)Cl       96 % of control
2                            CCOP1(=S)OCCO1      100 % of control
3  CO/C(=N\S(=O)(=O)c1ccccc1)C1CC=CCC1/C(=N\S(=O)(=O)c1ccccc1)OC (configuration not stated)      100 % of control
4        Nc1c(Br)cc(O)c2c1C(=O)c1ccccc1C2=O      100 % of control

# batch: return T/C for each of the 6 molecules below
1. CCOC(=O)CCN(CCC(=O)OCC)C1CC1c1ccccc1 (configuration not stated)
2. CN(C)c1ccc(Cc2ccc(N(C)C)cc2[N+](=O)[O-])cc1
3. COc1cc(C=O)ccc1OC(=O)Nc1ccc([N+](=O)[O-])cc1Cl
4. CCCCCCCCCCCCCCCCS(=O)(=O)c1ccc(NN)cc1
5. N#Cc1c(F)c(F)c(Oc2c(F)c(F)c(Oc3c(F)c(F)c(C#N)c(F)c3F)c(F)c2F)c(F)c1F
6. COc1cc2c(cc1I)-c1c(cc(OC)c(OC)c1OC)CC[C@@H]2NC(C)=O

output:
1. 100 % of control
2. 96 % of control
3. 103 % of control
4. 97 % of control
5. 94 % of control
6. 99 % of control

# batch: return T/C for each of the 3 molecules below
1. CCOC1(c2ccccc2)C(c2ccccc2)N1C(=O)c1ccc([N+](=O)[O-])cc1 (configuration not stated)
2. CC1=NN(c2ccccc2)C(=O)CC1
3. O=C1NC(=O)C2(CCc3ccccc3C2)N1 (configuration not stated)

output:
1: 92 % of control; 2: 106 % of control; 3: 100 % of control

# batch: return T/C for each of the 4 molecules below
1. Cc1cccc(NC(=O)Nc2cccc3ccccc23)c1C
2. CCCCCCCCCCS(=O)(=O)CC(=O)O
3. CC(C)(C)C1C(=O)N1C(C)(C)C (configuration not stated)
4. CC1(C)SC(C)(C)N(C=O)C1C(=O)O (configuration not stated)

output:
["91 % of control", "100 % of control", "101 % of control", "105 % of control"]

# batch: return T/C for each of the 3 molecules below
1. CC1=CC(C)(C)NC(=S)N1c1ccc(C)cc1
2. COc1ccccc1N1C(=O)C2C(C1=O)C1(Cl)C(Cl)=C(Cl)C2(Cl)C1(Cl)Cl (configuration not stated)
3. O=C1C2C(C(=O)N1c1ccc(Br)cc1)C1(Cl)C(Cl)=C(Cl)C2(Cl)C1(Cl)Cl (configuration not stated)

output:
1. 104 % of control
2. 103 % of control
3. 101 % of control

# batch: return T/C for each of the 4 molecules below
1. O=C(O)C(CSC(c1ccccc1)c1ccccc1)NC(=O)C(c1ccccc1)c1ccccc1 (configuration not stated)
2. NC(=O)c1cccc([N+](=O)[O-])c1Br
3. O=C(O)/C(=C\c1ccc([N+](=O)[O-])cc1)c1cccc2ccccc12
4. CCCCOc1ccc(C(=O)N/N=C\c2cc(OC)c(OC)c(OC)c2)cc1

output:
1: 97 % of control; 2: 103 % of control; 3: 89 % of control; 4: 94 % of control

# batch: return T/C for each of the 4 molecules below
1. NC(=O)Nc1cccc(C(=O)O)c1
2. COc1ccc(Cl)cc1NC(=O)Nc1ccc(Nc2ccccc2)cc1
3. [O-][n+]1onc(-c2ccccc2)c1-c1ccccc1
4. Cc1ccc(S(=O)(=O)C=C(c2ccccc2)c2ccccc2)cc1

output:
1. 92 % of control
2. 101 % of control
3. 105 % of control
4. 100 % of control

# batch: return T/C for each of the 5 molecules below
1. C=CCOc1ccc(C=O)cc1OCC=C
2. COc1cc(C)c(Cl)c(C)c1C(C)=O
3. FC1(F)SC2c3ccccc3CCC2C1(F)F (configuration not stated)
4. CC(C)OC(CCCl)c1ccccc1 (configuration not stated)
5. C=CCC1(CC)C(=O)NC(=O)NC1=O

output:
1: 101 % of control; 2: 95 % of control; 3: 96 % of control; 4: 96 % of control; 5: 94 % of control

# batch: return T/C for each of the 6 molecules below
1. COc1ccccc1C(=O)N/N=C/c1ccccc1Cl
2. CCCCCCCCCCCCCCC(F)C(=O)O (configuration not stated)
3. CCOC(=O)NC(CC)CO (configuration not stated)
4. c1ccc2c(c1)NC(C1Nc3ccccc3S1)S2 (configuration not stated)
5. COc1c(Cl)cc(Cl)cc1Cl
6. CCOC(=O)c1ccc(Cl)cc1

output:
1. 108 % of control
2. 92 % of control
3. 96 % of control
4. 93 % of control
5. 101 % of control
6. 97 % of control
